Form field: Kd (one value per entry).
# System name: HsrA response regulator (HP1043) (Helicobacter pylori, UniProt O25684)
# Construct: N-terminal 6xHis tag, removed with thrombin; 223 residues; symmetric dimer
# Sequence (O25684 1-223): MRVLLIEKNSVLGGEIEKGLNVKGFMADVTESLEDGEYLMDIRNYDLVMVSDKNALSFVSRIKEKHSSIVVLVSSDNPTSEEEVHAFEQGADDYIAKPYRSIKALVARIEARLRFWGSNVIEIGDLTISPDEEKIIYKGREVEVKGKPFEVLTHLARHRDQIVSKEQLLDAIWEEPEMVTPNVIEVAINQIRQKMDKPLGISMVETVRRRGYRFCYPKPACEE
# Assay details: isothermal titration calorimetry
# Condition set: read-out: ITC^a / Kd
Quick note: give the figure in µM, leave out the unit.

O=c1c(O)c(-c2ccc(O)cc2)oc2cc(O)cc(O)c12 33
O=c1cc(-c2ccccc2)oc2cc(O)cc(O)c12 17
O=c1cc(-c2ccc(O)cc2)oc2cc(O)cc(O)c12 20

As a next step, examine the compound that follows.
Prompt line: I would be grateful if you could share the reported Kd for COc1ccc([C@@H]2CC(=O)c3c(O)cc(O)cc3O2)cc1O .
Response line: 26
